Assay: binders of probe aHhip on microarray, primary screen, stem cell growth factor project, biochemical, small-molecule microarray, fluorescence 635/667 (AID 1087);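 also: score merges spot fluorescence at 667nm with spot signal to noise ratio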
Conditions: higher = more signal
Classification field: enter Fulfilled for composite z-score values not below -0.1, Not fulfilled for values below it.

O=C(NCC(F)(F)F)[C@@H]1c2ccccc2C(=O)N(Cc2ccccc2Cl)[C@H]1c1ccc(CO)cc1: Not fulfilled
Cc1ccc(S(=O)(=O)c2cc3oc2CC[C@@H](CO)NC(=O)N(C)Cc2cn(nn2)C[C@H](Cc2ccccc2)NC3=O)cc1: Not fulfilled
C#CCCCON=C1C[C@@H](O)[C@@H](O)[C@@H]2[C@@H]3C(=O)N(Cc4ccc5c(c4)OCO5)C(=O)[C@@H]3CC[C@@H]12: Fulfilled
Cc1ccc(N2C(=O)c3ccccc3[C@](C)(C(=O)NCC(C)C)[C@@H]2c2ccc(CO)cc2)nc1: Fulfilled
O=C/C=C/c1ccccc1Cl: Fulfilled

Does composite z-score meet or surpass -0.1 for `C#C[C@H](O[Si](C#Cc1ccccc1)(C(C)C)C(C)C)c1ccccc1` ?
Not fulfilled

* * *

Could you please report measured z-score for the items listed next?
Experiment: modulators of HCV replicon luciferase signal, primary screen, HCV replication inhibitor project, Huh7 cells, luciferase reporter (AID 1109);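 also: huh7 hepatoma cells harbouring a luciferase neomycin HCV replicon reporter; luciferase luminescence as measure of HCV replicon replication; test concentration not given here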
Conditions: 48 h, higher = more signal
Answers are plain numbers.

Some compounds with recorded z-score:
CCCNC(=O)[C@@H]1c2ccccc2C(=O)N(C2CCCCC2)[C@H]1c1ccc(CO)cc1: -1.32
O=C/C=C/c1ccccc1Cl: 1.03

Dear colleague, could you please provide z-score for the compounds listed below?
1. CCC(=O)[C@]12O[C@@]3([C@@H]4C(=O)OCC[C@@H]41)N(Cc1ccccc1)C(C)=C(C(=O)OC)[C@@H](c1ccccc1)N3C2=O
2. CCC(=O)[C@]12O[C@@]3([C@@H]4C(=O)OCC[C@@H]41)N(CC)C(C)=C(C(=O)OC)[C@@H](c1ccccc1)N3C2=O
3. Cc1ccc(N2C(=O)c3ccccc3[C@](C)(C(=O)NCC(C)C)[C@@H]2c2ccc(CO)cc2)nc1
4. COC(=O)C1=C(C)N(Cc2ccccc2)c2c(C(=O)OC)c(C(=O)OC)c(C(=O)OC)c(=O)n2[C@@H]1c1ccccc1
5. COCCOC(=O)N1C(=O)[C@@]2(c3cc(C#CC4=CCCCC4)ccc31)[C@H](C(=O)NC[C@H](O)c1ccccc1)[C@H]1C(=O)O[C@H](c3ccccc3)[C@H](c3ccccc3)N1[C@@H]2c1ccc(OCCO)cc1
6. C=CC[C@@]1(C(=O)N2CCOCC2)N=C(c2ccc(OCCCO)cc2)O[C@@H]1c1ccccc1
7. C=CCOC(=O)[C@@H]1[C@H]2C(=O)O[C@H](c3ccccc3)[C@H](c3ccccc3)N2[C@H](c2ccc(OCCOC(=O)[C@H]3C[C@H]4C(=O)N5CCC[C@H]5C(=O)N4[C@H]3c3ccc(O)cc3)cc2)[C@@]12C(=O)Nc1ccccc12

0.286
-0.206
0.324
0.0883
-2.08
-0.802
-1.31

* * *

Assay: S. cerevisiae growth modulation with rapamycin, primary screen, strain BY4716, OD600, 96 h (AID 1091); also: test concentration not given here
Details: higher = more signal, called active from +8 up or from −8 down
Could you please report measured z-score for the items listed next?
Answers are plain numbers.

Dear colleague, could you please provide z-score for the compounds listed below?
1. C=C[C@H](OC)[C@@H](OC(=O)Nc1ccc(SC)cc1)c1ccc(OC)c(O)c1
2. C#CCNC(/C=C/c1ccccc1)CO (stereo not given)
3. C=C(COC)C(=O)CC[C@H](OC(=O)c1ccccc1-c1ccccc1C(=O)O)c1cccc(OCCO)c1
4. O=C1OCC=C[C@H]2OC34C=CCN(Cc5ccccc5)C(=O)[C@H]3N(CCO)C(=O)[C@@H]4[C@@H]12 (stereo not given in full)
5. C=C(COC)/C(=C/C[C@@H](OC(=O)c1ccncc1)c1ccc(OCCO)cc1)c1cc(C(=O)OC)ccc1OC
6. CC(C)CN1C(=O)[C@@]2(Cc3ccccc31)c1ccccc1C(=O)N(C1CCCCC1)[C@H]2c1ccc(CO)cc1
7. O=C1C2C=CC(C(O)Cc3ccccc3)N(Nc3ccc([N+](=O)[O-])cc3)C2C(=O)N1c1ccccc1 (stereo not given)
8. C#CCCCON=C1C[C@@H](O)[C@@H](O)[C@@H]2[C@@H]3C(=O)N(Cc4ccc5c(c4)OCO5)C(=O)[C@@H]3CC[C@@H]12

1: -0.44; 2: 1.24; 3: -3.63; 4: -1.17; 5: -1.83; 6: -2.34; 7: 1.18; 8: 0.271

Dear colleague, could you please provide z-score for the compounds listed below?
1. O=C1OCCC=C[C@H]2OC34C=CCN(Cc5ccccc5)C(=O)[C@H]3N(CCO)C(=O)[C@@H]4C12 (stereo not given in full)
2. O=C1O[C@H](c2ccccc2)[C@H](c2ccccc2)N2[C@H]1[C@@H](C(=O)NC[C@H](O)c1ccccc1)[C@]1(C(=O)Nc3ccc(C#CC4(O)CCCCCC4)cc31)[C@H]2c1ccc(OCCO)cc1

-1.5
4.16

Dear colleague, could you please provide z-score for the compounds listed below?
1. CCCNC(=O)[C@@H]1c2ccccc2C(=O)N(Cc2cc(F)cc(C(F)(F)F)c2)[C@H]1c1ccc(CO)cc1
2. Cc1ccccc1C(O)C1C=CC2C(=O)N(c3ccccc3)C(=O)C2N1Nc1ccc(C#N)cc1 (stereo not given)
3. Cc1ccc(S[C@]2(C(=O)NC(C)C)CC(=O)N(Cc3cc(C(F)(F)F)cc(C(F)(F)F)c3)[C@@H]2c2ccc(CO)cc2I)cc1
4. O=C1O[C@@H](c2ccccc2)[C@@H](c2ccccc2)N2[C@@H](c3ccc(O)cc3)[C@]3(C(=O)Nc4ccc(C#CC5(O)CCCCCC5)cc43)[C@@H](C(=O)Nc3nc4ccccc4s3)[C@H]12
5. COC(=O)[C@@]1(Cc2ccccc2N=[N+]=[N-])N=C(c2ccc(OCCCO)cc2)O[C@H]1c1ccccc1CN=[N+]=[N-]

-1.36
3.52
1.2
1.06
28.5

* * *

Assay: MM1S cell viability effects, profiling panel, calcein-AM fluorescence, 48 h, basal (AID 1165);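 also: viability of MM1S multiple myeloma cells under basal unstimulated conditions; test concentration not given here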
Conditions: higher = more signal
measuredEndpoint: z-score

Dear colleague, could you please provide z-score for the compounds listed below?
1. CCCCCCc1nc(C2CC2)c(C)c2c1[Si](C(C)C)(C(C)C)OC2
2. Cc1ccc(S[C@]2(C(=O)NC(C)C)CC(=O)N(Cc3cc(C(F)(F)F)cc(C(F)(F)F)c3)[C@@H]2c2ccc(CO)cc2I)cc1
3. COCCOC(=O)N1C(=O)[C@@]2(c3cc(C#CCNC(N)=O)ccc31)[C@H](c1ccc(OCCO)cc1)N1[C@H](c3ccccc3)[C@H](c3ccccc3)OC(=O)[C@H]1[C@@H]2C(=O)Nc1nc2ccccc2s1

1. -0.155
2. -1.66
3. -0.139

Dear colleague, could you please provide z-score for the compounds listed below?
1. COc1ccc([Si](C)(C)[C@@H]2[C@@H](CCO)O[C@]3(C(=O)N(Cc4ccccc4)c4ccccc43)[C@H]2C)cc1
2. C[C@@H]1NC(=O)CC=C[C@@H](C)[C@@H]2C=C[C@H](O)[C@@H](COC(=O)[C@H](C)NC(=O)CC=C[C@@H](C)[C@@H]3C=C[C@H](O)[C@@H](COC1=O)O3)O2
3. COC(=O)C[C@H]1O[C@]2(C(=O)N(C)c3ccccc32)[C@@H](C)[C@@H]1[Si](C)(C)c1ccc(OC)cc1

[-1.22, 0.188, -0.128]

* * *

Assay: small-molecule binders of probe aLefty1, primary screen, biochemical, small-molecule microarray, 635/667 nm fluorescence (AID 1153);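 also: score merges spot fluorescence with signal-to-noise ratio from the scanned slide images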
Details: higher = more signal
Could you please report measured composite z-score for the items listed next?
Answers are plain numbers.

COc1cc(CO)cc(I)c1O[C@H]1C=C(C(=O)NCCO)C[C@@H](N(CC2CCCCC2)C(=O)c2cc3ccccc3oc2=O)[C@@H]1O: -0.0969
C=C(COC)C(=O)CC[C@H](OC(=O)c1ccccc1-c1ccccc1C(=O)O)c1cccc(OCCO)c1: 0.333

# composite z-score of `O=C1O[C@@H](c2ccccc2)[C@@H](c2ccccc2)N2[C@@H](c3ccc(OCCO)cc3)[C@]3(C(=O)Nc4ccc(C#CCCO)cc43)[C@@H](C(=O)N3CCN(c4ncccn4)CC3)[C@H]12` = 0.242

* * *

Target: Dickkopf-related protein 1 (Homo sapiens)
Test: DKK1 binders on small-molecule microarrays, primary screen, biochemical, small-molecule microarray, 635 nm fluorescence scan (AID 1106);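 also: score merges emission near 667 nm with signal to noise over three replicate slides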
Conditions: DKK1 binding, higher = more signal
measuredEndpoint: composite z-score
One number for each entry.

Some molecules with recorded composite z-score:
CN(C)CCCC[C@@H]1NC(=O)[C@@H]2C[C@H](C(=O)O)[C@H](c3ccc(O)cc3)N2C1=O: 1.68
N#Cc1ccc(NN2C(C(O)CCc3ccccc3)C=CC3C(=O)N(c4ccccc4)C(=O)C32)cc1 (centres undefined): 0.0048
C#CCCCON=C1C[C@@H](O)[C@@H](O)[C@@H]2[C@@H]3C(=O)N(Cc4ccc5c(c4)OCO5)C(=O)[C@@H]3CC[C@@H]12: 0.278

Considering `C[N+](C)(C)CCCCNC(=O)[C@@H]1C[C@@H]2C(=O)N3CCC[C@H]3C(=O)N2[C@@H]1c1cccc(OCCO)c1` , its composite z-score with Dickkopf-related protein 1 (Homo sapiens) was recorded as 1.44
